Test system: 786-O
Assay: GI50, drug alone; higher = less potent
Conditions: treatment: drug alone; 5 days
Here the recorded GI50, drug alone is given for each entry.
Provide only the numeric value, understood in nM.

// below: answered molecules
molecule	GI50, drug alone [nM]
COc1cc(Nc2ncc3c(n2)-c2ccc(Cl)cc2C(c2c(F)cccc2OC)=NC3)ccc1C(=O)O	71.1
CCN(CC)CCNC(=O)c1c(C)[nH]c(/C=C2\C(=O)Nc3ccc(F)cc32)c1C.O=C(O)C[C@H](O)C(=O)O [Sunitinib Malate (Sutent)]	3980
C[C@@H](Oc1cc(-c2cnn(C3CCNCC3)c2)cnc1N)c1c(Cl)ccc(F)c1Cl	1840
C#Cc1cccc(Nc2ncnc3cc(OCCOC)c(OCCO)cc23)c1.Cl	101

We next turn to a different molecule, shown below.
Form field - read-out: GI50, drug alone; system: 786-O; submitted item: C=CC(=O)Nc1ccc2ncnc(Nc3ccc(OCc4cccc(F)c4)c(Cl)c3)c2c1.Cc1ccc(S(=O)(=O)O)cc1 2380

###

Test system: 786-O
Assay: minimum viability across doses, drug alone, relative to DMSO (fraction); higher = less growth inhibition
Conditions: treatment: drug alone; 5 days
readout_name: minimum viability across doses
A bare number is all that is needed in reply.

Please report the recorded minimum viability across doses for COc1cc2nccc(Oc3ccc(NC(=O)Nc4ccc(F)cc4F)c(F)c3)c2cc1OC . 0.673

Please report the recorded minimum viability across doses for Cl.N=C(N)NC(=N)NCCc1ccccc1 [Phenformin hydrochloride] . 0.116

Please report the recorded minimum viability across doses for CCC[C@H](NC(=O)/C(C#N)=C/c1cccc(Br)n1)c1ccccc1 . 0.00591

Please report the recorded minimum viability across doses for Cc1cc(Nc2cc(CN3CCOCC3)c3nc(C)c(Cc4ccc(Cl)cc4F)n3n2)[nH]n1 . 0.00692

Please report the recorded minimum viability across doses for COc1ccc2cc(-c3[nH]c(-c4ccc(S(C)=O)cc4)nc3-c3ccncc3)ccc2c1 (stereo not drawn) . 0.52

Please report the recorded minimum viability across doses for COc1ccc2c(c1OC)N=C(NC(=O)c1cccnc1)N1CCN=C21 . 0.53

Please report the recorded minimum viability across doses for CCc1cnn2c(NCc3ccc[n+]([O-])c3)cc(N3CCCC[C@H]3CCO)nc12 . 0.00554

Please report the recorded minimum viability across doses for CCc1cc2c(cc1N1CCC(N3CCOCC3)CC1)C(C)(C)c1[nH]c3cc(C#N)ccc3c1C2=O . 0.655

###

System: CAKI-1
Assay: minimum viability across doses, drug + dasatinib, relative to DMSO (fraction); higher = less growth inhibition
Settings: treatment: drug + dasatinib (fixed dose, not stated); 5 days
Here the recorded minimum viability across doses is given for each entry.
A bare number is all that is needed in reply.

// below: answered molecules
molecule	minimum viability across doses
CN1CCN(CCOc2cc(OC3CCOCC3)c3c(Nc4c(Cl)ccc5c4OCO5)ncnc3c2)CC1 [Saracatinib (AZD0530)] + Cc1nc(Nc2ncc(C(=O)Nc3c(C)cccc3Cl)s2)cc(N2CCN(CCO)CC2)n1	0.14
CC(C)(C)c1cc(NC(=O)Nc2ccc(-c3cn4c(n3)sc3cc(OCCN5CCOCC5)ccc34)cc2)no1 [Quizartinib (AC220)] + Cc1nc(Nc2ncc(C(=O)Nc3c(C)cccc3Cl)s2)cc(N2CCN(CCO)CC2)n1	0.378
CNC(=O)c1ccccc1Sc1ccc2c(/C=C/c3ccccn3)n[nH]c2c1 [Axitinib] + Cc1nc(Nc2ncc(C(=O)Nc3c(C)cccc3Cl)s2)cc(N2CCN(CCO)CC2)n1	0.162
Oc1cc(O)cc(/C=C/c2ccc(O)c(O)c2)c1 [Piceatannol] + Cc1nc(Nc2ncc(C(=O)Nc3c(C)cccc3Cl)s2)cc(N2CCN(CCO)CC2)n1	0.135

Form field - read-out: minimum viability across doses; system: CAKI-1; submitted item: Nc1cccc2c1C(=O)N(C1CCC(=O)NC1=O)C2=O (stereo not given) [Pomalidomide] + Cc1nc(Nc2ncc(C(=O)Nc3c(C)cccc3Cl)s2)cc(N2CCN(CCO)CC2)n1 0.642

###

Tested on: CAKI-1
Assay: minimum viability across doses, drug + dasatinib, relative to DMSO (fraction); higher = less growth inhibition
Details: treatment: drug + dasatinib (fixed dose, not stated); 5 days
Sorting guide: entries reporting minimum viability across doses beneath 0.2 go in the t pile, the rest go in the f pile.

Sample answers from the record:
compound	group
C[C@@H](N)[C@H]1CC[C@H](C(=O)Nc2ccncc2)CC1.Cl.Cl + Cc1nc(Nc2ncc(C(=O)Nc3c(C)cccc3Cl)s2)cc(N2CCN(CCO)CC2)n1	f
COC1=CC(c2cc3ccccc3[nH]2)=N/C1=C\c1[nH]c(C)cc1C.CS(=O)(=O)O [Obatoclax mesylate (GX15-070)] + Cc1nc(Nc2ncc(C(=O)Nc3c(C)cccc3Cl)s2)cc(N2CCN(CCO)CC2)n1	t
NC(=O)c1ccc(N(C(N)=O)c2c(F)cccc2F)nc1-c1ccc(F)cc1F [VX-702] + Cc1nc(Nc2ncc(C(=O)Nc3c(C)cccc3Cl)s2)cc(N2CCN(CCO)CC2)n1	f

Consider the compound CCO.N#CC(=C(/N)Sc1ccccc1N)/C(C#N)=C(\N)Sc1ccccc1N [U0126-EtOH] + Cc1nc(Nc2ncc(C(=O)Nc3c(C)cccc3Cl)s2)cc(N2CCN(CCO)CC2)n1 . Is its minimum viability across doses strictly less than 0.2? f

Consider the compound Cc1cc(C)c(/C=C2\C(=O)Nc3ccccc32)[nH]1 [Semaxanib (SU5416)] + Cc1nc(Nc2ncc(C(=O)Nc3c(C)cccc3Cl)s2)cc(N2CCN(CCO)CC2)n1 . Is its minimum viability across doses strictly less than 0.2? f

Consider the compound Cc1ccc(-n2nc(C(C)(C)C)cc2NC(=O)Nc2ccc(OCCN3CCOCC3)c3ccccc23)cc1 [BIRB 796 (Doramapimod)] + Cc1nc(Nc2ncc(C(=O)Nc3c(C)cccc3Cl)s2)cc(N2CCN(CCO)CC2)n1 . Is its minimum viability across doses strictly less than 0.2? f

Consider the compound Cc1nc(N)sc1-c1ccnc(Nc2ccc(N3CCOCC3)cc2)n1 [CYC116] + Cc1nc(Nc2ncc(C(=O)Nc3c(C)cccc3Cl)s2)cc(N2CCN(CCO)CC2)n1 . Is its minimum viability across doses strictly less than 0.2? t

Consider the compound CS(=O)(=O)O.O=C(Nc1cccc(Cl)c1)Nc1ncc(CCNc2ncnc3ccsc23)s1 [SNS-314] + Cc1nc(Nc2ncc(C(=O)Nc3c(C)cccc3Cl)s2)cc(N2CCN(CCO)CC2)n1 . Is its minimum viability across doses strictly less than 0.2? t

Consider the compound CS(=O)(=O)CCNCc1ccc(-c2ccc3ncnc(Nc4ccc(OCc5cccc(F)c5)c(Cl)c4)c3c2)o1.Cc1ccc(S(=O)(=O)O)cc1.Cc1ccc(S(=O)(=O)O)cc1 [Lapatinib Ditosylate (Tykerb)] + Cc1nc(Nc2ncc(C(=O)Nc3c(C)cccc3Cl)s2)cc(N2CCN(CCO)CC2)n1 . Is its minimum viability across doses strictly less than 0.2? f

###

Here the recorded minimum viability across doses is given for each entry.
System: 786-O
Test: minimum viability across doses, drug + dasatinib, relative to DMSO (fraction); higher = less growth inhibition
Settings: treatment: drug + dasatinib (fixed dose, not stated); 5 days

compound	observed_result
CCn1nnc2c(N3CCOCC3)nc(-c3ccc(NC(=O)Nc4ccc(C(=O)N5CCN(C)CC5)cc4)cc3)nc21 [PKI-402] + Cc1nc(Nc2ncc(C(=O)Nc3c(C)cccc3Cl)s2)cc(N2CCN(CCO)CC2)n1 [dasatinib]	0.00332
Cc1cnc(Nc2ccc(OCCN3CCCC3)cc2)nc1Nc1cccc(S(=O)(=O)NC(C)(C)C)c1 + Cc1nc(Nc2ncc(C(=O)Nc3c(C)cccc3Cl)s2)cc(N2CCN(CCO)CC2)n1 [dasatinib]	0.0103
CCN1CCN(C(=O)Cc2ccc(Nc3ncc(F)c(Nc4ccc(C(=O)Nc5ccccc5Cl)cc4)n3)cc2)CC1 [Aurora A Inhibitor I] + Cc1nc(Nc2ncc(C(=O)Nc3c(C)cccc3Cl)s2)cc(N2CCN(CCO)CC2)n1 [dasatinib]	0.0991
O=c1cc(N2CCOCC2)oc2c(-c3cccc4c3sc3ccccc34)cccc12 + Cc1nc(Nc2ncc(C(=O)Nc3c(C)cccc3Cl)s2)cc(N2CCN(CCO)CC2)n1 [dasatinib]	0.0139
CN1CCN(c2cccc(Nc3nc4c(-c5ccc(S(C)(=O)=O)cc5)cccn4n3)c2)CC1 + Cc1nc(Nc2ncc(C(=O)Nc3c(C)cccc3Cl)s2)cc(N2CCN(CCO)CC2)n1 [dasatinib]	0.443

We next turn to a different compound, shown below.
Please report the recorded minimum viability across doses for CNC(=O)c1nn(C)c2c1C(C)(C)Cc1cnc(Nc3ccc(N4CCN(C)CC4)cc3)nc1-2 + Cc1nc(Nc2ncc(C(=O)Nc3c(C)cccc3Cl)s2)cc(N2CCN(CCO)CC2)n1 [dasatinib] . 0.00492

###

System: 769-P
Assay: GI50 of drug in presence of dasatinib; higher = less potent
Conditions: treatment: drug + dasatinib (fixed dose, not stated); 5 days
readout_name: log10 GI50 of drug (log10 of the value in µM)
Give log10 of GI50 of drug, with GI50 of drug taken in µM.

compound	log10 GI50 of drug
CC(C)CC(=O)Nc1n[nH]c2c1CN(C(=O)C1CCN(C)CC1)C2(C)C + Cc1nc(Nc2ncc(C(=O)Nc3c(C)cccc3Cl)s2)cc(N2CCN(CCO)CC2)n1 [dasatinib]	0.51
CN(C)C1CCN(C(=O)c2ccc(NC(=O)Nc3ccc(-c4nc(N5CCOCC5)nc(N5CCOCC5)n4)cc3)cc2)CC1 + Cc1nc(Nc2ncc(C(=O)Nc3c(C)cccc3Cl)s2)cc(N2CCN(CCO)CC2)n1 [dasatinib]	0.46
CCN1CCN(C(=O)Cc2ccc(Nc3ncc(F)c(Nc4ccc(C(=O)Nc5ccccc5Cl)cc4)n3)cc2)CC1 [Aurora A Inhibitor I] + Cc1nc(Nc2ncc(C(=O)Nc3c(C)cccc3Cl)s2)cc(N2CCN(CCO)CC2)n1 [dasatinib]	-0.19
CCC(=O)N1CCN(c2ccc(-n3c(=O)ccc4cnc5ccc(-c6cnc7ccccc7c6)cc5c43)cc2C(F)(F)F)CC1 [Torin 1] + Cc1nc(Nc2ncc(C(=O)Nc3c(C)cccc3Cl)s2)cc(N2CCN(CCO)CC2)n1 [dasatinib]	-1.66

Please report the recorded log10 GI50 of drug for C#Cc1cccc(Nc2ncnc3cc(OCCOC)c(OCCOC)cc23)c1.Cl [Erlotinib HCl] + Cc1nc(Nc2ncc(C(=O)Nc3c(C)cccc3Cl)s2)cc(N2CCN(CCO)CC2)n1 [dasatinib] . -0.36
